test system: Caco-2; test: Permeability across human Caco-2 cells
The label depends only on logPapp: Criterion met if it is at least -5, Criterion not met if it is smaller.

Input line: Confirm if logPapp reported for the compound CNC(=C[N+](=O)[O-])NCCSCc1ccc(CN(C)C)o1 [RANITIDINE] is -5 or above.
Output line: Criterion not met

Input line: Confirm if logPapp reported for the compound Cn1c(=O)c2[nH]cnc2n(C)c1=O.O [THEOPHYLLINE] is -5 or above.
Output line: Criterion met

Input line: Confirm if logPapp reported for the compound CC(C)(C)NC[C@H](O)COc1nsnc1N1CCOCC1 [TIMOLOL] is -5 or above.
Output line: Criterion met

Input line: Confirm if logPapp reported for the compound CCCc1nc2c(C)cc(-c3nc4ccccc4n3C)cc2n1Cc1ccc(-c2ccccc2C(=O)O)cc1 is -5 or above.
Output line: Criterion met

Input line: Confirm if logPapp reported for the compound CN1CCC[C@H]1c1cccnc1 [NICOTINE] is -5 or above.
Output line: Criterion met

###

test system: Caco-2; test: Permeability across human Caco-2 cells
Under this convention, t denotes logPapp strictly below -5 and f denotes logPapp at or above -5.

Input line: Is logPapp of CN/C(=N/CCSCc1nc[nH]c1C)NC#N [CIMETIDINE] strictly below -5?
Output line: t

Input line: Is logPapp of Clc1cccc(Cl)c1N=C1NCCN1 [CLONIDINE] strictly below -5?
Output line: f

Input line: Is logPapp of O=C(O)c1cc(/N=N/c2ccc(S(=O)(=O)Nc3ccccn3)cc2)ccc1O [SULFASALAZINE] strictly below -5?
Output line: t

Input line: Is logPapp of CC(=O)[C@H]1CC[C@H]2[C@@H]3CCC4=CC(=O)CC[C@]4(C)[C@H]3CC[C@]12C [PROGESTERONE] strictly below -5?
Output line: f

Input line: Is logPapp of C=CCOc1ccccc1OCC(O)CNC(C)C (stereo unspecified) [OXPRENOLOL] strictly below -5?
Output line: f

Input line: Is logPapp of CNC[C@H](O)c1ccc(O)c(O)c1 [EPINEPHRINE] strictly below -5?
Output line: t

Input line: Is logPapp of CC(C)NCC(O)COc1cccc2[nH]ccc12 (stereo unspecified) [PINDOLOL] strictly below -5?
Output line: f

Input line: Is logPapp of c1ccc(C2(N3CCCCC3)CCCCC2)cc1 [PHENCYCLIDINE] strictly below -5?
Output line: f

Input line: Is logPapp of CCOC(=O)[C@H](CCc1ccccc1)N[C@@H](C)C(=O)N1CCC[C@H]1C(=O)O strictly below -5?
Output line: t

Input line: Is logPapp of O=C(O)c1ccccc1O [SALICYLIC ACID] strictly below -5?
Output line: f
